System Under Test: Kallikrein-7 (Homo sapiens) (UniProt P49862)
Sequence (P49862 whole entry, looked up): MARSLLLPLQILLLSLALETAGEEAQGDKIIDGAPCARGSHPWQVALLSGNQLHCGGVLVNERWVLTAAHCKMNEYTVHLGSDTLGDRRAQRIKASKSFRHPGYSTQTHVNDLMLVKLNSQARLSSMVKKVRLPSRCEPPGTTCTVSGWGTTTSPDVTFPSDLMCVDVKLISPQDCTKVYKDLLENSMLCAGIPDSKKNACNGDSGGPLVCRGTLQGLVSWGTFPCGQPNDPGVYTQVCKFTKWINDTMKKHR
Assay Overview: activation of human kallikrein-7 proenzyme – biochemical, fluorescence intensity, primary screen (AID 652039)
Assay Context: purified proKLK7, EDANS-DABCYL substrate fluorescence; at 7 µM; active compounds read high; 100% is mature enzyme control, 0% vehicle
Screen size: about 370,000 compounds; about 3,300 (0.89%) were called active. For the sample, actives were picked, then their nearest neighbours and some compounds at random.
Each entry below lists one item and its recorded activation value.
Attribute Measured: activation (%)

{"Compound": "Cc1ccc(CSc2nnc(SCC(=O)NN=Cc3cc(Br)ccc3F)s2)cc1", "Recorded Value": -0.39}
{"Compound": "CC(=O)Nc1cncc(-c2ccccc2CO)n1", "Recorded Value": -0.16}
{"Compound": "CC1C(=O)C(C)C(c2ccc(O)cc2)NC1c1ccc(O)cc1 (configuration not stated)", "Recorded Value": 0.15}
{"Compound": "O=c1c(-c2ccccc2)coc2c(CN3CCOCC3)c(O)ccc12", "Recorded Value": 45.3}
{"Compound": "O=C(c1ccncc1)N1CC[C@H]2[C@H](CCCN2Cc2ccc(F)cc2)C1", "Recorded Value": 0.94}
{"Compound": "COc1ccc(N2CCN(C(=O)CSc3nnc4ncccn34)CC2)cc1", "Recorded Value": 0.11}
{"Compound": "CS(=O)(=O)Nc1ccc(C(=O)N2CCCC2)cc1", "Recorded Value": 0.41}
{"Compound": "c1ccc(-c2cn3cccnc3n2)cc1", "Recorded Value": 32.3}
{"Compound": "CNc1cncc(-c2ccc(NS(C)(=O)=O)cc2)n1", "Recorded Value": 128}
{"Compound": "Cc1ccccc1Nc1c(-c2ccccc2)nc2ncccn12", "Recorded Value": 0.74}
{"Compound": "Nc1nc2ncccn2c1-c1ccccc1", "Recorded Value": 5.34}
{"Compound": "COCCN(CCOC)c1nc(N)c2c(N)nc3c(c2c1C#N)CC(=O)N3Cc1ccc(Cl)cc1", "Recorded Value": 50.3}

###

As shown below, each of these compounds has a reported activation value.
System Under Test: Kallikrein-7 (Homo sapiens) (UniProt P49862)
Assay Overview: activation of human kallikrein-7 proenzyme – biochemical, fluorescence intensity, primary screen (AID 652039)
Assay Context: purified proKLK7, EDANS-DABCYL substrate fluorescence; at 7 µM; active compounds read high; 100% is mature enzyme control, 0% vehicle
The whole screen tested about 370,000 compounds, of which about 3,300 (0.89%) were called active. This excerpt belongs to a sample that is enriched for actives.
Attribute Measured: activation (%)

{"Compound": "C=CCN1C(=O)[C@@H](CC(=O)N2CCN(C(=O)OCC)CC2)[C@]2(C(=O)OCC)CCCCC/C=C/12", "System Under Test": "Kallikrein-7 (Homo sapiens) (UniProt P49862)", "Recorded Value": 0.05}
{"Compound": "COc1ccc(S(=O)(=O)N/N=C\\c2ccc(OC)c(COc3ccc(C)cc3[N+](=O)[O-])c2)cc1", "System Under Test": "Kallikrein-7 (Homo sapiens) (UniProt P49862)", "Recorded Value": 0.18}
{"Compound": "COC(=O)C1=NN(c2ccccc2)C2C(=O)N(c3ccccc3OC)C(=O)C12 (stereo unspecified)", "System Under Test": "Kallikrein-7 (Homo sapiens) (UniProt P49862)", "Recorded Value": 20.8}
{"Compound": "COC(=O)c1cc(C(=O)OC)cc(N2C(=O)CC(N3CCN(c4ccccc4)CC3)C2=O)c1 (stereo unspecified)", "System Under Test": "Kallikrein-7 (Homo sapiens) (UniProt P49862)", "Recorded Value": -0.42}
{"Compound": "CC(C)CNC(=O)OCc1cn(Cc2ccc(F)cc2)nn1", "System Under Test": "Kallikrein-7 (Homo sapiens) (UniProt P49862)", "Recorded Value": -0.65}
{"Compound": "Cc1ccc(-n2c(=O)c(C#N)cc3c(=O)n4ccccc4nc32)cc1C", "System Under Test": "Kallikrein-7 (Homo sapiens) (UniProt P49862)", "Recorded Value": 2.54}
{"Compound": "c1cc(-c2ccc3[nH]ccc3c2)n2ccnc2c1", "System Under Test": "Kallikrein-7 (Homo sapiens) (UniProt P49862)", "Recorded Value": 3.83}
{"Compound": "CCN(CC)Cc1c(C(=O)N/N=C/c2cccc(OCc3ccc(F)cc3)c2)nnn1-c1nonc1N", "System Under Test": "Kallikrein-7 (Homo sapiens) (UniProt P49862)", "Recorded Value": 0.38}
{"Compound": "CC(C)CNS(=O)(=O)CC1NCCc2ccccc21 (stereo unspecified)", "System Under Test": "Kallikrein-7 (Homo sapiens) (UniProt P49862)", "Recorded Value": -0.37}
{"Compound": "CC1CCN(c2ccc(C(=O)O)cc2NS(=O)(=O)c2ccc(Br)s2)CC1", "System Under Test": "Kallikrein-7 (Homo sapiens) (UniProt P49862)", "Recorded Value": 0.65}
{"Compound": "COc1cccc2cc(C(=O)N3CCN(C(=O)c4ccccc4)CC3)c(=O)oc12", "System Under Test": "Kallikrein-7 (Homo sapiens) (UniProt P49862)", "Recorded Value": -0.14}
{"Compound": "COc1ccc2oc(=O)c(C(=O)N3CCCC3)cc2c1", "System Under Test": "Kallikrein-7 (Homo sapiens) (UniProt P49862)", "Recorded Value": 21.5}
{"Compound": "COc1ccc(CCNC(=O)COC(=O)c2cc(=O)c3ccccc3o2)cc1", "System Under Test": "Kallikrein-7 (Homo sapiens) (UniProt P49862)", "Recorded Value": 0.13}
{"Compound": "Cc1cccn2c(=O)c3cc(C#N)c(=NC(=O)c4cccnc4)n(CC4CCCO4)c3nc12 (stereo unspecified)", "System Under Test": "Kallikrein-7 (Homo sapiens) (UniProt P49862)", "Recorded Value": 17.3}
{"Compound": "O=C(N1CCOCC1)N1CC[C@H]2[C@H](CCCN2Cc2ccc(F)cc2)C1", "System Under Test": "Kallikrein-7 (Homo sapiens) (UniProt P49862)", "Recorded Value": 0.18}
{"Compound": "Cc1cccn2c(=O)c3cc(C#N)c(=O)n(CCCN4CCOCC4)c3nc12", "System Under Test": "Kallikrein-7 (Homo sapiens) (UniProt P49862)", "Recorded Value": 39.9}
{"Compound": "COc1ccc(CNC(=O)COC(=O)C2=Cc3ccccc3OC2)cc1", "System Under Test": "Kallikrein-7 (Homo sapiens) (UniProt P49862)", "Recorded Value": 31.2}
{"Compound": "O=C(NCc1cccnc1)c1cc(S(=O)(=O)N2CCOCC2)c(Cl)cc1Cl", "System Under Test": "Kallikrein-7 (Homo sapiens) (UniProt P49862)", "Recorded Value": -0.01}
{"Compound": "Cc1ccc(Cn2cc(COC(=O)N(C)Cc3ccccc3)nn2)cc1", "System Under Test": "Kallikrein-7 (Homo sapiens) (UniProt P49862)", "Recorded Value": 0.39}
{"Compound": "Cc1cc(NS(=O)(=O)c2ccc(NC(=O)CSc3nnc(SCc4ccc(F)cc4)s3)cc2)nc(C)n1", "System Under Test": "Kallikrein-7 (Homo sapiens) (UniProt P49862)", "Recorded Value": -0.24}
{"Compound": "Cc1ccccc1NC(=O)Cn1c(=O)n(CC2CCCO2)c(=O)c2ccccc21 (stereo unspecified)", "System Under Test": "Kallikrein-7 (Homo sapiens) (UniProt P49862)", "Recorded Value": 0.23}

###

System Under Test: Kallikrein-7 (Homo sapiens) (UniProt P49862)
Assay Overview: activation of human kallikrein-7 proenzyme – biochemical, fluorescence intensity, primary screen (AID 652039)
Assay Context: purified proKLK7, EDANS-DABCYL substrate fluorescence; at 7 µM; active compounds read high; 100% is mature enzyme control, 0% vehicle
Screen size: about 370,000 compounds; about 3,300 (0.89%) were called active. Many of the other results were omitted from the sample, so actives are more common in it than they were.
Overview of reported activation across a group of compounds:
Attribute Measured: activation (%)

{"Compound": "COc1ccc(CCNC(=O)C(=O)Nc2ccc3nc4n(c(=O)c3c2)CCCCC4)cc1OC", "System Under Test": "Kallikrein-7 (Homo sapiens) (UniProt P49862)", "Attribute Measured": "activation", "Recorded Value": 0.82}
{"Compound": "Cc1ccccc1N1CCN(C2CCCN(C(=O)c3cn4c(C)cccc4n3)C2)CC1 (centres undefined)", "System Under Test": "Kallikrein-7 (Homo sapiens) (UniProt P49862)", "Attribute Measured": "activation", "Recorded Value": 0.45}
{"Compound": "CN(C(=O)c1ccccn1)c1nnc(-c2ccccn2)s1", "System Under Test": "Kallikrein-7 (Homo sapiens) (UniProt P49862)", "Attribute Measured": "activation", "Recorded Value": 26.2}
{"Compound": "Nn1c(SCC(=O)N2c3ccccc3Sc3ccccc32)nnc1-c1n[nH]c2c1CCC2", "System Under Test": "Kallikrein-7 (Homo sapiens) (UniProt P49862)", "Attribute Measured": "activation", "Recorded Value": 0.49}
{"Compound": "CN(C)CC(=O)N[C@@H]1C[C@@H]2O[C@H](CO)CC[C@@H]2O[C@@H]1CCc1ccc(C#Cc2ccccc2)cc1", "System Under Test": "Kallikrein-7 (Homo sapiens) (UniProt P49862)", "Attribute Measured": "activation", "Recorded Value": 0.21}
{"Compound": "Cc1cc(C(=O)OCC(=O)NCc2ccco2)c(C)n1-c1ccccc1", "System Under Test": "Kallikrein-7 (Homo sapiens) (UniProt P49862)", "Attribute Measured": "activation", "Recorded Value": 0.45}
{"Compound": "O=C(CSc1nc2sc3c(c2c(=O)n1-c1ccccc1)CCCC3)NN=Cc1ccc(OCc2ccccc2)cc1", "System Under Test": "Kallikrein-7 (Homo sapiens) (UniProt P49862)", "Attribute Measured": "activation", "Recorded Value": -0.01}
{"Compound": "CCc1ccc(-c2cc(C(=O)NCc3ccco3)c3ccccc3n2)s1", "System Under Test": "Kallikrein-7 (Homo sapiens) (UniProt P49862)", "Attribute Measured": "activation", "Recorded Value": 41.4}
{"Compound": "CCOC(=O)[C@]12CCCC3=C1N(CCC3)C(=O)[C@@H](CC(=O)N1CCSCC1)C2", "System Under Test": "Kallikrein-7 (Homo sapiens) (UniProt P49862)", "Attribute Measured": "activation", "Recorded Value": -0.2}
